TARGET_OR_SYSTEM: T1, ARID4B TD121 (Homo sapiens, UniProt Q4LE39 1-121)
T1 sequence: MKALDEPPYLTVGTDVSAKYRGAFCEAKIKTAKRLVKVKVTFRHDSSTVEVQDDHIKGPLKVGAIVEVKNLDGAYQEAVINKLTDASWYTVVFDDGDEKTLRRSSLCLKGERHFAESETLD
PROTOCOL_SUMMARY: NMR titration; n fixed 5; text says ~110; 50 mM Tris-HCl pH 7.6, 50 mM NaCl (buffer A); ITC 25 C; EMSA 4 C, 12 uM DNA, 8% native gel in TBE; NMR titration by 1H-15N HSQC (temperature not stated for titration; buffer A also defined elsewhere as 20 mM phosphate, 100 mM NaCl, pH 7.0)
DETAILS: protein: recombinant; 5' overhang 1 nt on each strand (17 bp paired)
MEASURED_PARAMETER: pKd
Give bare numbers, as −log10 of the molar value.

Param item = dsDNA1 (dsDNA) DNA 1: CTCAGGTCAAAGGTCACG DNA 2: TCGTGACCTTTGACCTGA ; retrieve measured pKd.
3.95

These measurements were taken from paper PMC8038949.
